Data origin, for the record: the Deep4Chem optical property database

assay: solvent given as SMILES; details: in CO
# key: entry, value: emission maximum

{"Compound": "Cc1cc(C)nc(N)n1", "emission maximum": "339 nm"}
{"Compound": "NS(=O)(=O)c1ccc(N2N=C(c3ccc(O)cc3)CC2c2ccccc2)cc1 (stereo unspecified)", "emission maximum": "432 nm"}
{"Compound": "COc1cc(OC)c(C2=C3C(C)=CC(C)=[N+]3[B-](F)(F)n3c(C)cc(C)c32)c(OC)c1", "emission maximum": "515 nm"}
{"Compound": "Cc1cc(=O)c2ccc(N)cc2o1", "emission maximum": "421 nm"}
{"Compound": "c1ccc2c(c1)cc(-c1cc(-c3nccs3)nc(-c3nccs3)c1)c1ccccc12", "emission maximum": "431 nm"}
{"Compound": "CCOC(=O)C1=CN(c2ccccc2)C=C(C(=O)OCC)C1c1ccccc1", "emission maximum": "426 nm"}

###

# key: entry, value: emission maximum
assay: solvent given as SMILES; settings: in C1CCCCC1

{"Compound": "CC1(C)CCc2c(c3ccccc3c3nc4ccccc4nc23)O1", "emission maximum": "459.98 nm"}
{"Compound": "Cc1ccccc1C1=C2C=c3c(oc4ccccc34)=[N+]2[B-](F)(F)n2c1cc1c3ccccc3oc12", "emission maximum": "595.5 nm"}
{"Compound": "Cc1cc(C)c(B(c2ccc(N3c4ccccc4C(C)(C)c4ccccc43)cc2)c2c(C)cc(C)cc2C)c(C)c1", "emission maximum": "442 nm"}
{"Compound": "Cc1ccc([B-]2(c3ccc(C)cc3)n3nc(C(F)(F)F)cc3-c3c4ccccc4cc[n+]32)cc1", "emission maximum": "407 nm"}
{"Compound": "CN(C)c1ccc(-c2nc(C#N)c(C#N)n2C)cc1", "emission maximum": "375 nm"}
{"Compound": "COc1ccc(/C=C(\\C)c2nc3ccccc3o2)cc1", "emission maximum": "380 nm"}
{"Compound": "Cc1ccc(-c2ccccc2)cc1", "emission maximum": "333.89 nm"}
{"Compound": "N#C[Se]CCCCCOc1ccc2ccc(=O)oc2c1", "emission maximum": "378 nm"}
{"Compound": "Cc1ccc(C2=C3C=C(I)C=[N+]3[B-](F)(F)n3c2cc(I)c3I)cc1", "emission maximum": "577.5 nm"}
{"Compound": "CCCCC(CC)Cn1c2cc(C#N)c(-c3ccc(N(c4ccccc4)c4ccccc4)cc3)cc2c2cc(-c3ccc(N(c4ccccc4)c4ccccc4)cc3)c(C#N)cc21 (stereo not given)", "emission maximum": "450 nm"}

###

test: solvent given as SMILES; conditions: in ClC(Cl)Cl
Class 1.0: emission maximum at least 500 nm. Class 0.0: emission maximum below 500 nm.

{"Compound": "N#Cc1nc(N(Cc2ccccc2I)Cc2ccccc2I)c(C#N)nc1N(Cc1ccccc1I)Cc1ccccc1I", "Assigned class": 1.0}
{"Compound": "CCC1(CC)c2cc(B(c3c(C)cc(C)cc3C)c3c(C)cc(C)cc3C)ccc2-c2ccc(N(c3ccccc3)c3ccc4c(c3)C(CC)(CC)c3cc(B(c5c(C)cc(C)cc5C)c5c(C)cc(C)cc5C)ccc3-4)cc21", "Assigned class": 0.0}
{"Compound": "Cc1nc2c(ccc3c2sc(/C=C/c2ccc(N(CCO)CCO)cc2)[n+]3C)s1", "Assigned class": 1.0}
{"Compound": "CCCCC1(c2ccccc2)Nc2c(-c3ccc(OC)cc3)ccc(-c3ccc(OC)cc3)c2N=C1c1ccccc1 (centres undefined)", "Assigned class": 1.0}
{"Compound": "C#CCOc1ccc(C2=[N+]3C(=Nc4c(-c5ccccc5)cc(-c5ccc(O)cc5)n4[B-]3(F)F)C(c3ccccc3)=C2)cc1", "Assigned class": 1.0}
{"Compound": "c1cc(N2CCCC2)ccn1", "Assigned class": 0.0}
{"Compound": "C(#Cc1ccccc1)c1ccccc1", "Assigned class": 0.0}

###

test: solvent given as SMILES; conditions: in O
# key: entry, value: emission maximum

{"Compound": "CC/[NH+]=c1\\cc2oc3cc(NCCC(=O)NC(C(=O)OC)c4ccccc4)c4ccccc4c3nc-2cc1C (centres undefined)", "emission maximum, nm": 657}
{"Compound": "CN(C)c1ccc2cc3c(cc2c1)OCCN=C3", "emission maximum, nm": 559}
{"Compound": "CN(C)c1ccc(/C=C/c2cc[n+](C)c3ccccc23)cc1", "emission maximum, nm": 698}
{"Compound": "Cc1cc(-c2ccc(-c3n(C)c4ccccc4[n+]3C)cc2)ccc1-c1ccc(-c2n(C)c3ccccc3[n+]2C)cc1", "emission maximum, nm": 399}

###

assay: solvent given as SMILES; details: in ClCCl
Class field: derived from emission maximum; ranges range A (below 500 nm), range B (500 nm to below 600 nm), range C (600 nm or more)

{"Smiles record": "O=c1c2cccc3cccc(c32)c2nc3cccc4cccc(c43)n12", "Assigned class": "range C"}
{"Smiles record": "[O-][n+]1c(/C=C/c2cccs2)nc(N2CCOCC2)c2c1CCCC2", "Assigned class": "range B"}
{"Smiles record": "CCN(CC)c1ccc2c(-c3ccccc3C(=O)O)c3c([o+]c2c1)/C(=C/Nc1ccccc1)CCC3", "Assigned class": "range C"}
{"Smiles record": "CCN(CC)c1ccc2cc(-c3ccc(-c4ccc(-c5cc6ccc(N(CC)CC)cc6oc5=O)cc4)cc3)c(=O)oc2c1", "Assigned class": "range A"}
{"Smiles record": "CCOC(=O)c1c(-c2cc3cc4c(cc3oc2=O)OC(C)(C)CC4)nn(-c2cccc(C)c2)c1C(=O)OCC", "Assigned class": "range A"}
{"Smiles record": "CCCCCC(=O)c1c2c(c(C(=O)CCCCC)c3c1OC1(CCCC1)O3)OC1(CCCC1)O2", "Assigned class": "range B"}
{"Smiles record": "COC1=[N+]2C(=C(c3ccccc3)c3ccc(OC)n3[B-]2(F)F)C=C1SC#N", "Assigned class": "range B"}

###

test: solvent given as SMILES; details: in ClC(Cl)Cl
# key: entry, value: emission maximum
Measure: emission maximum

{"Smiles record": "N#CC(C#N)=C(/C=C/c1cn(-c2ccccc2)nc1-c1ccccc1)c1ccccc1", "Reported value": "488 nm"}
{"Smiles record": "c1ccc2c(c1)-c1c(cc3ccc4cccc5ccc1c3c45)C21c2cc(-c3ccc4ccc5cccc6ccc3c4c56)ccc2-c2ccc(-c3ccc4ccc5cccc6ccc3c4c56)cc21", "Reported value": "424 nm"}
{"Smiles record": "CCN(CC)c1ccc2c(-c3ccccc3C(=O)O)c3c([o+]c2c1)/C(=C/Nc1ccccc1)CCC3", "Reported value": "644 nm"}
{"Smiles record": "F[B-]1(F)OC(c2ccc(C(F)(F)F)cc2)=Cc2c3ccccc3cc[n+]21", "Reported value": "464.6 nm"}
{"Smiles record": "O=C1c2ccccc2NCN1Cc1ccccc1", "Reported value": "398 nm"}
{"Smiles record": "CC(C)(C)c1ccc(C2=c3sc4ccccc4c3=[N+]3C2=Nc2c(-c4ccc(C(C)(C)C)cc4)c4sc5ccccc5c4n2[B-]3(F)F)cc1", "Reported value": "794 nm"}
{"Smiles record": "COc1cc(/C=C/c2nc3ccccc3s2)c(OC)cc1/C=C/c1nc(C)nc(C)n1", "Reported value": "494 nm"}
{"Smiles record": "N#Cc1ccc(N/N=C/c2ccc3ccccc3c2O)cc1", "Reported value": "425 nm"}
{"Smiles record": "COc1ccc(-c2nc(-c3ccccc3)c(N(c3ccccc3)c3ccccc3)s2)cc1", "Reported value": "457 nm"}
{"Smiles record": "CC1(C)CCc2c(c3ccccc3c3nc4c(nc23)c2c(c3ccccc34)OC(C)(C)CC2)O1", "Reported value": "446.43 nm"}
{"Smiles record": "F[B-]1(F)OC(c2ccc(C(F)(F)F)cc2)=Cc2ccc3ccccc3[n+]21", "Reported value": "434 nm"}
{"Smiles record": "CCCCCCCCOc1ccc(-c2c3c4n(c(-c5ccc(OCCCCCCCC)cc5)c3c3n2[B-](F)(F)[n+]2c(sc5ccccc52)N=3)[B-](F)(F)[n+]2c(sc3ccccc32)N=4)cc1", "Reported value": "676 nm"}
{"Smiles record": "CCCCCCN1C(=O)c2cccc3cc(/N=C\\c4cn(C)c5ccccc45)cc(c23)C1=O", "Reported value": "500 nm"}
{"Smiles record": "CCCCn1c2ccccc2c2ccc3c4cc(-c5ccc6ccccc6c5)ccc4n(CCCC)c3c21", "Reported value": "410 nm"}
{"Smiles record": "C[Si]1(C)O[Si](C)(C)c2cc3cc4cc5c(cc4cc3cc21)C(=O)c1cc2cc3cc4c(cc3cc2cc1C5=O)[Si](C)(C)O[Si]4(C)C", "Reported value": "518 nm"}
{"Smiles record": "Cc1ccc(/C2=c3\\cc/c(o3)=C(\\c3ccc(C)cc3)c3ccc([nH]3)-c3ccc4n3[B-](F)(F)[N+]3=C(C=CC3=C4c3ccc[nH]3)c3ccc2[nH]3)cc1", "Reported value": "729 nm"}
{"Smiles record": "c1ccc2c(c1)cc(-c1cc(-c3nccs3)nc(-c3nccs3)c1)c1ccccc12", "Reported value": "383 nm"}
